- MEASUREMENT_TARGET: ShHTL7 T190F (Striga hermonthica, UniProt A0A0M3PNA2, T190F)
- ASSAY_PROTOCOL: YLG competitive inhibition, ShHTL7 mutant T190F
ENDPOINT: IC50 (nM)
Response body: numeric value in nM, unit text excluded.

| MOLECULE | MEASUREMENT_TARGET | ENDPOINT | UNIT_ABBREV | READING |
| --- | --- | --- | --- | --- |
| CC1=C[C@H](OC(=O)N2CCN(C(=O)COc3ccc(Br)cc3C)CC2)OC1=O [(S)-4a] | ShHTL7 T190F (Striga hermonthica, UniProt A0A0M3PNA2, T190F) | IC50 | nM | 1070 |

Fill blank: measured IC50 of the molecule CC1=C[C@@H](OC(=O)N2CCN(C(=O)COc3ccc(Br)cc3C)CC2)OC1=O [(R)-4a] is ____.
4690

###

- MEASUREMENT_TARGET: UniProt:A0A0M3PNA2
- ASSAY_PROTOCOL: Competitive inhibition of ShHTL7 with Yoshimulactone Green (YLG) as substrate
- Format: biochemical
- STUDY_CONDITIONS: ShHTL7; YLG competition; Supplementary Fig. 27; read-out: IC50, replicate 1
Recorded measurements of IC50, one per entry
Response body: numeric value in µM, unit text excluded.

Illustrative cases are given below, each with its answer.
| COMPOUND | UNIT_ABBREV | IC50 |
| --- | --- | --- |
| CC1=C[C@@H](OC(=O)N2CCN(C(=O)COc3ccc(Br)cc3C)CC2)OC1=O [(R)-4a] | µM | 40.1 |
| CC1=CC(OC(=O)N2CCN(C(=O)COc3ccc(Br)cc3C)CC2)N(C)C1=O (stereo not shown) | µM | 4.33 |

// map CC1=CC(OC(=O)N2CCN(C(=O)COc3ccc(Br)cc3C)CC2)CC1=O (stereo not shown) to recorded IC50 (system: UniProt:A0A0M3PNA2)
3.08

Then this compound: CC1=C[C@H](O/C=C2/C(=O)O[C@@H]3c4ccccc4C[C@H]23)OC1=O (racemic) [rac-GR24, reference compound]
0.633

###

Recorded measurements of IC50, one per entry
- MEASUREMENT_TARGET: ShHTL7 M219A (Striga hermonthica, UniProt A0A0M3PNA2, M219A)
- Sequence (A0A0M3PNA2 whole entry M219A): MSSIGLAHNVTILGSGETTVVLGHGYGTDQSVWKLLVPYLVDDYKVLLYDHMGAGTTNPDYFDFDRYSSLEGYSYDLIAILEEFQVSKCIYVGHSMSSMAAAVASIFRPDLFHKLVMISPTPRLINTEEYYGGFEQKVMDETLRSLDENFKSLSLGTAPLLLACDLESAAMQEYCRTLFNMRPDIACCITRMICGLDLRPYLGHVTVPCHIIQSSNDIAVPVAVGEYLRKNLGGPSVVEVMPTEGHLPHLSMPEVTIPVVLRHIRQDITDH
- ASSAY_PROTOCOL: YLG competitive inhibition, ShHTL7 mutant M219A

| COMPOUND | ENDPOINT | READING |
| --- | --- | --- |
| CC1=C[C@H](OC(=O)N2CCN(C(=O)COc3ccc(Br)cc3C)CC2)OC1=O [(S)-4a] | IC50 | 6.53 µM |

// moving on: another record for IC50
// map CC1=C[C@@H](OC(=O)N2CCN(C(=O)COc3ccc(Br)cc3C)CC2)OC1=O [(R)-4a] to recorded IC50 (system: ShHTL7 M219A (Striga hermonthica, UniProt A0A0M3PNA2, M219A))
> 100 µM

###

- MEASUREMENT_TARGET: ShHTL7 (Striga hermonthica, UniProt A0A0M3PNA2)
- Sequence (A0A0M3PNA2 entry or part of it): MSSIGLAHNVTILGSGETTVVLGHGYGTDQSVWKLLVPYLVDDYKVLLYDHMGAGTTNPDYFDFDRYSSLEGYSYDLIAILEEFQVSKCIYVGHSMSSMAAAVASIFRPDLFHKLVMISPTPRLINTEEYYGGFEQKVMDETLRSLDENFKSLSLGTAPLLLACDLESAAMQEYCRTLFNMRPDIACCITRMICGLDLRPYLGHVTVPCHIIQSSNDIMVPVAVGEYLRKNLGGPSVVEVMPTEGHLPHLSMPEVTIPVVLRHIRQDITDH
- ASSAY_PROTOCOL: Competitive inhibition of ShHTL7 with Yoshimulactone Green (YLG) as substrate
- Assay type: biochemical
- STUDY_CONDITIONS: wild-type ShHTL7; average of 3; source data of Fig. 2a,b, Supplementary Figs. 8a, 9a, 20b; read-out: IC50, competitive ShHTL7 inhibition (YLG), source data average
Note to self: use t only for IC50 readings below 4 µM; a reading exactly at 4 µM still gets f.

Worked examples, 5 compounds total:
| COMPOUND | CLASS_LABEL |
| --- | --- |
| CCCCOc1ccc(S(=O)(=O)N2CCN(C(=O)OC3C=C(C)C(=O)O3)CC2)cc1 (stereo not shown) [SPL7, reference compound] | f |
| CC1=CC(OC(=O)N2CCN(C(=O)COc3ccc(Br)cc3C)CC2)OC1=O (stereo not shown) | t |
| CC1=C[C@@H](OC(=O)N2CCN(C(=O)COc3ccc(Br)cc3C)CC2)OC1=O [(R)-4a] | f |
| CC1=C[C@H](OC(=O)N2CCN(C(=O)COc3ccc(Br)cc3C)CC2)OC1=O [(S)-4a] | t |
| CC1=CC(OC(=O)N2CCN(CC3CC4C=CC3C4)CC2)OC1=O (stereo not shown) | f |

Record CC1=CC(OC(=O)N2CCN(C(=O)COc3c(F)c(F)c(F)c(F)c3F)CC2)OC1=O (stereo not shown) : is its IC50 strictly below 4 µM?
t

Then this compound: CC1=CC(CC(=O)N2CCN(C(=O)COc3ccc(Br)cc3C)CC2)OC1=O (stereo not shown)
f

Then this compound: CC1=CC(OC(=O)N2CCN(C(=O)C(F)(F)Oc3ccc(Br)cc3C)CC2)OC1=O (stereo not shown)
f

Then this compound: CC1=CC(OC(=O)N2CCN(C(=O)COc3ccc(F)cc3C)CC2)OC1=O (stereo not shown)
t

###

- MEASUREMENT_TARGET: ShHTL7 T190G (Striga hermonthica, UniProt A0A0M3PNA2, T190G)
- ASSAY_PROTOCOL: YLG competitive inhibition, ShHTL7 mutant T190G
ENDPOINT: IC50 (µM)
Response body: numeric value in µM, unit text excluded.

| COMPOUND | IC50, µM |
| --- | --- |
| CC1=C[C@H](OC(=O)N2CCN(C(=O)COc3ccc(Br)cc3C)CC2)OC1=O [(S)-4a] | 0.575 |

// moving on: another record for IC50
Fill blank: measured IC50 of the compound CC1=C[C@@H](OC(=O)N2CCN(C(=O)COc3ccc(Br)cc3C)CC2)OC1=O [(R)-4a] is ____.
26.4

###

Recorded measurements of IC50, one per entry
- MEASUREMENT_TARGET: ShHTL7 F134K (Striga hermonthica, UniProt A0A0M3PNA2, F134K)
- ASSAY_PROTOCOL: YLG competitive inhibition, ShHTL7 mutant F134K
Response body: numeric value in µM, unit text excluded.

| MOLECULE | UNIT_ABBREV | IC50 |
| --- | --- | --- |
| CC1=C[C@@H](OC(=O)N2CCN(C(=O)COc3ccc(Br)cc3C)CC2)OC1=O [(R)-4a] | µM | 62.1 |

// moving on: another record for IC50
Fill blank: measured IC50 of the molecule CC1=C[C@H](OC(=O)N2CCN(C(=O)COc3ccc(Br)cc3C)CC2)OC1=O [(S)-4a] is ____.
0.613

###

Recorded measurements of IC50, one per entry
- MEASUREMENT_TARGET: ShHTL7 T157A (Striga hermonthica, UniProt A0A0M3PNA2, T157A)
- Sequence (A0A0M3PNA2 whole entry T157A): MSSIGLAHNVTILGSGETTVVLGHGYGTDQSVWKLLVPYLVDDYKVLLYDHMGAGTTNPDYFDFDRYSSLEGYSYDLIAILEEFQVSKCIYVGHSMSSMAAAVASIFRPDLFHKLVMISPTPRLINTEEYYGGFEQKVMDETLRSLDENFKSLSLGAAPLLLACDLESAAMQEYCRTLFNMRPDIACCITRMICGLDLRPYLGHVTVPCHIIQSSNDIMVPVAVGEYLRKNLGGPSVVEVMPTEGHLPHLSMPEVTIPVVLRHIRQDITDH
- ASSAY_PROTOCOL: YLG competitive inhibition, ShHTL7 mutant T157A

| MOLECULE | IC50 |
| --- | --- |
| CC1=C[C@@H](OC(=O)N2CCN(C(=O)COc3ccc(Br)cc3C)CC2)OC1=O [(R)-4a] | 2.61 µM |

// moving on: another record for IC50
Fill blank: measured IC50 of the molecule CC1=C[C@H](OC(=O)N2CCN(C(=O)COc3ccc(Br)cc3C)CC2)OC1=O [(S)-4a] is ____.
0.17 µM

###

- Test system: PaKAI2s (5 KAI2 protein homologs in P. aegyptiaca)
- ASSAY_PROTOCOL: YLG-based competition assay on KAI2 protein homologs of P. aegyptiaca
- Type: biochemical, Phelipanche aegyptiaca
- STUDY_CONDITIONS: KAI2d3; YLG competition; Supplementary Fig. 27; read-out: IC50, replicate 1
Recorded measurements of IC50, one per entry

// map CC1=CC(OC(=O)N2CCN(C(=O)COc3ccc(Br)cc3C)CC2)CC1=O (stereo not shown) [4g] to recorded IC50 (system: PaKAI2s (5 KAI2 protein homologs in P. aegyptiaca))
57.1 µM

Then this compound: CC1=C[C@H](OC(=O)N2CCN(C(=O)COc3ccc(Br)cc3C)CC2)OC1=O [(S)-4a]
11.9 µM

###

- MEASUREMENT_TARGET: AtD14 (Arabidopsis thaliana)
- Construct: His tag; made in house; host or cells: E. coli BL21
- Sequence (Q9SQR3 whole entry): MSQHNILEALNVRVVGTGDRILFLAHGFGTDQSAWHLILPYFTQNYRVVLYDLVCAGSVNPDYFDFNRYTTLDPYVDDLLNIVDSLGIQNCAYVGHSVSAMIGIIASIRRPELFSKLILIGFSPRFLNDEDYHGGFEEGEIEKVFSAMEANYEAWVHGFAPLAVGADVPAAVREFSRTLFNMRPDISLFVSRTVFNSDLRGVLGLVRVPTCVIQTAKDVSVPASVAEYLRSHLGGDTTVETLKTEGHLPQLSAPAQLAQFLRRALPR
- ASSAY_PROTOCOL: Competitive inhibition of AtD14 with YLG as substrate
- Assay type: biochemical
- STUDY_CONDITIONS: YLG as the substrate; read-out: Competitive AtD14 inhibitory activity IC50
pIC50: −log10 of the molar value.
Recorded measurements of pIC50, one per entry

Illustrative cases are given below, each with its answer.
| COMPOUND | MEASUREMENT_TARGET | pIC50 |
| --- | --- | --- |
| CC1=C[C@@H](OC(=O)N2CCN(C(=O)COc3ccc(Br)cc3C)CC2)OC1=O [(R)-4a] | AtD14 (Arabidopsis thaliana) | < 4.00 |
| CC1=CC(OC(=O)N2CCN(C(=O)COc3ccc(Br)cc3C)CC2)OC1=O (stereo not drawn) | AtD14 (Arabidopsis thaliana) | < 4.00 |

Fill blank: measured pIC50 of the compound CC1=C[C@H](OC(=O)N2CCN(C(=O)COc3ccc(Br)cc3C)CC2)OC1=O [(S)-4a] is ____.
< 4.00
